Could you please report measured Percent Effect for the items listed next?
Tested on: Trypanosoma brucei
MEASUREMENT DESCRIPTION: Trypanosoma brucei 72 hour study
Format: functional, organism-based
Design: scale not given: in the data most compounds retested in dose-response had high values
CONDITIONS USED: 30 µM; 30.03 µM
In all, about 66,000 compounds went through this assay and about 960 (1.5%) showed an effect of 50% or more. Many of the other results were omitted from the sample, so strong results are more common in it than they were.
Numbers only, in %.

{"columns": ["COMPOUND", "Percent Effect (%)"],
 "data": [
  ["CC(C)n1ccnc1C1CCCN(c2ccccn2)C1 (configuration not stated)", 54.17],
  ["CC(C)(C)c1nnc(NCc2ccc(F)cc2)o1", -100],
  ["Cc1nccc(-c2cccc(NCC(=O)N3CCc4sccc4C3)c2)n1", 51.17],
  ["Cc1noc(NCc2cn(C)nc2-c2ccncc2)n1", -13.42],
  ["CCc1cc(N(C)Cc2ccno2)n2nc(C)c(C)c2n1", 69.73]
]}

// batch mode: one Percent Effect value per listed entry
1. COCCNC(=O)c1cc2c(c3ccccc3n2C)n1C(=O)N(C)C
2. O=C(c1ccc[nH]1)N1CCn2cc(Cn3cncn3)nc2C1
3. O=C(NCC(F)(F)F)NC1CCCc2c1cnn2CCO (configuration not stated)
4. COCc1cc(NCc2cc(F)ccc2F)n2nccc2n1
5. O=C(O)C(F)(F)F.O=C(c1ccccn1)N1C[C@H]2CCC[C@@]2(COCC2CCOCC2)C1

[28.71, -19.87, 3.56, -36.1, 14.59]

Hey, can you go through the list below and give me Percent Effect for every item?
1. Cc1ccc(CN2CCC3(C2)C(=O)N(CC(C)C)c2ccccc23)s1 (configuration not stated)
2. CC(C)n1c(=O)nc2n1C(=O)N(c1ccc(Br)cc1)C2
3. NC(=O)c1cc(NC(=O)N2CCOCC2)ccc1F
4. CC(C)n1ccnc1C1CCCN(c2ccnc3ccccc23)C1 (configuration not stated)
5. O=C(O)C(F)(F)F.O=C1[C@H]2CN(Cc3cccs3)C[C@H]2CN1c1ccsc1
6. CC(C)n1ccnc1CN1CCCN(C(=O)c2cccnc2O)CC1
7. O=C(C1CCOC1)N1CCC2(CCN(Cc3nccs3)C2)CC1 (configuration not stated)

-8.12
-31.4
-9.926
44.45
27.72
-16.49
6.218

Give one value of Percent Effect per listed compound.
1. CCC(C)Oc1ccc(CNCCNS(C)(=O)=O)cc1Cl (configuration not stated)
2. Cc1cc(NCc2cc(C)oc2C(F)(F)F)n2nc(C)cc2n1
3. CC1(C)Cc2c(cnn2-c2ccccc2)C(NC2CCSCC2)C1 (configuration not stated)
4. c1ncc2c(n1)CN(c1ncnc3[nH]ccc13)CC2

[0.13, 27.35, 82.22, -32.45]

Batch of 5 compounds: report Percent Effect for each.
1. NC(=O)c1cc(NC(=O)N2CCCCCC2)ccc1F
2. CC(=O)N1CCCC1c1csc(Nc2cnccn2)n1 (configuration not stated)
3. Cc1cccc(COc2ccc(C(C)NS(N)(=O)=O)cc2)c1 (configuration not stated)
4. CN(C)c1nc(NCCCN2CCc3ccccc32)ncc1F
5. COCCC1(CNC(=O)Nc2ccnc(C)c2)CCCC1

1. -43.72
2. -20
3. 4.364
4. -2.481
5. 5.014

Parameters: items (list). Returns: Percent Effect for each item.
1. O=C(C1CCOC1)N1CCC2(CCN(Cc3nccs3)CC2)CC1 (configuration not stated)
2. CCc1cc(N(C)Cc2ccncn2)n2nc(C)c(C)c2n1
3. Cc1nccc(-c2cccc(NCC(=O)N3CCCCCCC3)c2)n1
4. CCCN1Cc2nc(N3CCCC3)ncc2C1=O
5. CCC(NC(=O)CC1CCN(C(C)C)CC1)c1cn2cccnc2n1 (configuration not stated)
6. COc1nccnc1-c1cc(NC2CCNCC2)nc2[nH]ccc12
7. c1nc(N2CCc3[nH]cnc3C2)c2cc[nH]c2n1
8. O=C1N[C@H]2OCCC[C@H]2[C@H](c2ccccc2)N1

55.49
25.26
-43.47
35.2
-16.96
-21.13
75.2
-11.46

Provide each entry's Percent Effect from the list below.
1. Cc1cnc(N)c(C(=O)C2CCN(C(=O)c3ccccc3F)CC2)c1
2. O=C(c1cccs1)N1C[C@H]2CCC[C@@]2(COCC2CCOCC2)C1
3. CC(=O)N1CCC2(CCN(C(=O)c3ccc(Cl)c(C(F)(F)F)c3)C2)C1 (configuration not stated)
4. Cc1nnc(NCc2ccc(F)cc2)o1
5. COCCNC(=O)[C@H]1C[C@@H]2CCN(c3nncs3)C[C@H]2O1.O=C(O)C(F)(F)F

1: 31.22; 2: 13.05; 3: 28.83; 4: -52.4; 5: 50.75

Look at each compound and report its Percent Effect.
1. CC(C)Nc1nc2c(cc1C(=O)NCC1CC1)CCNCC2.O=C(O)C(F)(F)F.O=C(O)C(F)(F)F
2. Cc1cccc(C2CCCN2Cc2nc(N)nc(N(C)C)n2)c1C (configuration not stated)
3. CN(C(=O)CSc1ccccn1)C1CCCN(CCc2ccccc2)C1 (configuration not stated)
4. O=C(O)C(F)(F)F.O=C1[C@H]2CN(Cc3ccc(F)cc3)C[C@H]2CN1c1ccsc1
5. CNC(=O)c1cc2c(nc1NCC1CC1)CCNCC2
6. Cc1nn(-c2ccccc2)c(C)c1CNC(=O)NC1CC1

1. -26.83
2. 100.5
3. 106.3
4. 14.65
5. -38.29
6. -13.2

Items follow; give Percent Effect for each.
1. CC(C)CNc1nc2c(cc1C(=O)NCC1CC1)CCNCC2
2. CC(=O)NC1CC(C)(C)Cc2c1cnn2-c1cccc(F)c1 (configuration not stated)

1. 100.1
2. -59.29
